Value source: patent US20190225691A1

- targetOrTestSystem: T1, human PD-L1 ECD-His (human, UniProt Q9NZQ7 19-238)
- T1 construct: extracellular domain; Analyte in all SPR and BLI runs; also called hPD-L1_ECD-His; hPD-L1 ECD-His; not shown: His tag
- T1 sequence (Q9NZQ7 19-238): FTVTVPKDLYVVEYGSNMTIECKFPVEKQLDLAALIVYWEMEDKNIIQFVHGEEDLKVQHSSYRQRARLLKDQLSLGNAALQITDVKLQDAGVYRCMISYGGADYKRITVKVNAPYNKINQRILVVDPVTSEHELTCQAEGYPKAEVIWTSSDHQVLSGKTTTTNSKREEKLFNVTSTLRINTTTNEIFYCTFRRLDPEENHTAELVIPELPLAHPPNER
- runDescription: SPR, hPD-L1-His, PL3 variants
Would you mind telling me the reported kon of each entry?
Report field: quantity (unit follows the number).

# input Endpoint output: kon of PL3 IgG1 (antibody, V domains shown) VH: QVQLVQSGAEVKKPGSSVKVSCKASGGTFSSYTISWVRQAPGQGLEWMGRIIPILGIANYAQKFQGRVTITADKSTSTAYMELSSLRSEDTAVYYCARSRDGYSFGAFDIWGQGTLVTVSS VL: QSVVTQPPPVSGAPGQRVTISCTGSSSNIGAGYDVHWYQQLPGTAPKLLIYGNSNRPSGVPDRFSGSKSGTSASLAITGLQAEDEADYYCQSYDSSLSAPVVFGGGTKLTVL . Value?
# output 542000 M⁻¹ s⁻¹

# input Endpoint output: kon of PL3#7 IgG2 (antibody, V domains shown, Human IgG2) VH: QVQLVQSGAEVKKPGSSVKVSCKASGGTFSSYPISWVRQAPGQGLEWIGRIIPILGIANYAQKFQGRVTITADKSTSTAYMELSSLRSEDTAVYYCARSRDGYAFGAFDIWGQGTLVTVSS VL: QSVVTQPPPVSGAPGQRVTISCTGSSSNIGAGYDVHWYQQLPGTAPKLLIYGNSNRPSGVPDRFSGSKSGTSASLAITGLQAEDEADYYCQTYDSSLSARVVFGGGTKLTVL . Value?
# output 995000 M⁻¹ s⁻¹

# input Endpoint output: kon of PL3#1 IgG2 (antibody, V domains shown, Human IgG2) VH: QVQLVQSGAEVKKPGSSVKVSCKASGGTFSSYRISWVRQAPGQGLEWMGRIIPILGIANYAQKFQGRVTITADKSTSTAYMELSSLRSEDTAVYYCARSRDGYSVGAFDSWGQGTLVTVSS VL: QSVVTQPPPVSGAPGQRVTISCTGSSSNIGAGYDVHWYQQLPGTAPKLLIYGNSRRPSGVPDRFSGSKSGTSASLAITGLQAEDEADYYCQTYDSSLSRPVVFGGGTKLTVL . Value?
# output 931000 M⁻¹ s⁻¹

# input Endpoint output: kon of PL3 IgG2 (antibody, V domains shown, Human IgG2) VH: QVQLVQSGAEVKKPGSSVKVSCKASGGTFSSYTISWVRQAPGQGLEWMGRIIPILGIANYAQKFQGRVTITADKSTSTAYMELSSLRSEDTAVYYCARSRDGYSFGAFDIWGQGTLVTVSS VL: QSVVTQPPPVSGAPGQRVTISCTGSSSNIGAGYDVHWYQQLPGTAPKLLIYGNSNRPSGVPDRFSGSKSGTSASLAITGLQAEDEADYYCQSYDSSLSAPVVFGGGTKLTVL . Value?
# output 417000 M⁻¹ s⁻¹
